# Test system: SVR cells
# measurement_notes: SVR cell assay: cell numbers counted at 48 hours, percent inhibition versus control
# Assay type: cell-based, murine
# measurement_setup: Mus musculus; 6 μg/ml; 10,000 SVR cells in 24 well dish; counted at 48 hours; read-out: Percent Inhibition at a Specified Density (μg/ml): 6
Exercise: state measured inhibition at 6 µg/mL for each of the compounds provided.
The response must be a number in % with no trailing unit.

IN: Reported inhibition at 6 µg/mL for SVR cells, given O=C1C(=Cc2ccccc2)COc2ccccc21 ?
OUT: 54.3

IN: Again, but for Cc1ccc(C(=O)/C=C/c2ccccc2Cl)c(C)c1
OUT: 73.4

IN: Would you kindly repeat that for O=C(/C=C/c1ccccc1)c1c(Cl)cccc1Cl ?
OUT: 88.7

IN: And the next one, O=C(/C=C/c1ccc(Cl)cc1)c1ccc(Cl)cc1 ?
OUT: 31.1

IN: Subsequent entry: O=C1C(=C2C=CC=CN2)CCCC1=C1C=CC=CN1
OUT: 96.7

IN: Consider next the compound O=C(/C=C/c1ccco1)/C=C/c1ccco1 in the same way.
OUT: 56.5

IN: Similarly, O=C(/C=C/c1c(Cl)cccc1Cl)c1ccccc1 ?
OUT: 97.5

====

Give Percent Inhibition at a Specified Density (μg/ml): 3 for every item shown.
# Tested on: SVR cells
# measurement_notes: SVR cell assay: cell numbers counted at 48 hours, percent inhibition versus control
# Assay type: cell-based, murine
# measurement_setup: 3 μg/ml; 10,000 SVR cells in 24 well dish; counted at 48 hours
Entry rule: numbers only, all in %.

IN: Data request, read-out Percent Inhibition at a Specified Density (μg/ml): 3, for O=C(C=Cc1cccc2ccccc12)c1ccc2ccccc2c1
OUT: 24.9

IN: Can you check O=C(C=Cc1ccccn1)c1ccccn1 next?
OUT: 53.4

IN: Lookup O=C(C=Cc1ccco1)c1ccccc1
OUT: 1.0

IN: What do you have for O=C(C=Cc1cccc2ccccc12)c1cccc2ccccc12 ?
OUT: 55.5

====

# Tested on: SVR cells
# measurement_notes: SVR cell assay: cell numbers counted at 48 hours, percent inhibition versus control
# Type: cell-based, murine
# measurement_setup: Mus musculus; 6 μg/ml; 10,000 SVR cells in 24 well dish; counted at 48 hours; read-out: Percent Inhibition at a Specified Density (μg/ml): 6
readout: inhibition at 6 µg/mL (%)
Reply numerically in %, unit not repeated.

IN: I am curious: what inhibition at 6 µg/mL value has been reported for CC(=O)c1cc2cc(Br)ccc2oc1=O [Compound 12, 3-Acetyl-6-bromocoumarin, reference compound] ?
OUT: 17.4

IN: What do we get for Cc1ccc(C(=O)/C=C/c2c(Cl)cccc2Cl)cc1 ?
OUT: 98.1

IN: Consider next the molecule O=C(/C=C/c1c(Cl)cccc1Cl)/C=C/c1c(Cl)cccc1Cl in the same way.
OUT: 90.4

IN: // repeat for Cc1ccc(C(=O)/C=C/c2ccc(Cl)cc2Cl)cc1 and report
OUT: 84.6

IN: Item: COc1ccc(/C=C/C(=O)c2ccc(OC)cc2)cc1
OUT: 85.2

IN: Repeat for the following molecule: O=C1C(=Cc2ccccc2)CCCC1=Cc1ccccc1
OUT: 92.8

IN: Query COc1cccc(OC)c1C(=O)/C=C/c1ccccc1 next
OUT: 63.5

IN: Would you mind doing O=C1CCCCC1=Cc1ccccc1 as well?
OUT: 72.4

IN: Also O=C1C(=Cc2c(Cl)cccc2Cl)CCCC1=Cc1c(Cl)cccc1Cl ?
OUT: 27.1

IN: Proceed to O=C(/C=C/c1c(F)c(F)c(F)c(F)c1F)c1c(F)c(F)c(F)c(F)c1F
OUT: 88.6

IN: Try Cc1ccc(C(=O)/C=C/c2ccccc2)c(C)c1 next.
OUT: 87.2

IN: What about O=c1cc(-c2ccccc2)oc2ccccc12 [Compound 14, Flavone, reference compound] ?
OUT: 46.7

IN: Please give the result for CC(=O)C(=Cc1ccccc1)C(C)=O too.
OUT: 82.7

IN: // same read-out, input: O=C(/C=C/c1c(F)cccc1Cl)/C=C/c1c(F)cccc1Cl
OUT: 86.6
